z-score values for the compounds below.
- assay.notes: FRG1 promoter luciferase signal modulators, primary screen, FRG1 inhibition for FSHD, cell-based, C2C12 myotubes, firefly/Renilla luciferase, luminescence (AID 1084)
- condition.description: higher = more signal, called active from +8 up or from −8 down

compound	z-score
C=CCC(OC(C)=O)[C@@H]1[C@@H](N(Cc2ccc(-c3ccccc3)cc2)C(=O)c2ccc(-c3ccccc3)cc2)c2cc(OCCCO)ccc2N1C(=O)Cc1ccc(OC)cc1 (stereo partly specified)	0.826
CCOC(=O)C1=C[C@@H](c2ccccc2)N(S(=O)(=O)c2ccc(C)cc2)[C@H]1c1ccc(F)cc1	-2.62
CCC1=C2CN(Cc3ccccc3Br)[C@@H]([C@@H](O)Cc3ccccc3)C2C=CCC1 (stereo partly specified)	-1.83
C/C(=N\O)C(=O)NCCCCCNC(=O)OCc1ccccc1	0.725
CCN1C(C)=C(C(=O)OC)[C@@H](c2ccccc2)N2C(=O)[C@](O)(C(=O)OC)[C@@H](c3ccccc3)C(C(=O)c3ccccc3)=C12	-4.12
N#Cc1ccc(NN2C(C(O)CCc3ccccc3)C=CC3C(=O)N(c4ccccc4)C(=O)C32)cc1 (stereo unspecified)	-1.22
CO[C@H]1COC(=O)CC=C[C@H](C)COC(=O)[C@@H](OCc2ccccc2)C=C[C@@H]1C	0.236
CN(C)c1ccc(C(O)C2C=CC3C(=O)NC(=O)C3N2Nc2ccc(Cl)cc2Cl)cc1 (stereo unspecified)	3.74
C=CC[C@]1(C(=O)O)N=C(c2ccc(OCCCO)cc2)O[C@H]1c1ccccc1	0.197
CC(C)(C)OC(=O)CC[C@]1(C(=O)N2CCCCC2)N=C(c2ccc(OCCCO)cc2)O[C@H]1c1ccccc1	-4.25
CCCNC(=O)[C@@]1(Sc2ccc(C)cc2)CC(=O)N(Cc2ccccc2Cl)[C@@H]1c1ccc(CO)cc1	-3.75
C=CC[C@]1(C(=O)OC)N=C(c2ccc(OCCCO)cc2)O[C@H]1c1ccccc1CN=[N+]=[N-]	-1.55
C=CCNC(=O)[C@H]1[C@@H]2C(=O)O[C@@H](c3ccccc3)[C@@H](c3ccccc3)N2[C@@H](c2ccc(O)cc2)[C@]12C(=O)Nc1ccc(C#CCNC(N)=O)cc12	-0.477
CC(=O)NCCCC[C@@H]1NC(=O)[C@H]2C[C@@H](C(=O)NCCCCCCN(C)C)[C@@H](c3ccc(O)cc3)N2C1=O	4.59
CO[C@H]1COC(=O)[C@H](C)NC(=O)CC=C[C@@H](C)[C@H](NS(=O)(=O)c2ccc(C)cc2)COC(=O)CC=C[C@@H]1C	-1.27
CCOC(=O)C[C@H]1[C@H](OC(=O)Cc2ccc3c(c2)OCO3)[C@@H](NC(=O)CC(C)C)c2cc(OCCCO)ccc2N1C(=O)c1ccccc1	-1.2
CCCC/C=C/[C@H]([C@@H](O)Cc1ccccc1)N(CC#Cc1ccccc1)Cc1ccccc1Br	-0.506
Cc1ccc(N2C(=O)c3ccccc3[C@@H](C(=O)NCc3ccccc3)[C@@H]2c2ccc(CO)cc2)nc1	-0.702
C=CC[C@]1(C(=O)O)N=C(c2ccc(OCCCO)cc2)O[C@H]1c1ccccc1N=[N+]=[N-]	4.6
COC(=O)C[C@H]1O[C@]2(C(=O)N(C)c3ccccc32)[C@@H](C)[C@@H]1[Si](C)(C)c1ccc(OC)cc1	-2.07
CC(C)[Si](OCC[C@H]1O[C@]2(C(=O)N(Cc3ccccc3)c3ccccc32)[C@@H](C)[C@@H]1[Si](C)(C)O)(C(C)C)C(C)C	0.562
O=C1O[C@H](c2ccccc2)[C@H](c2ccccc2)N2[C@H]1[C@@H](C(=O)NC[C@H](O)c1ccccc1)[C@]1(C(=O)Nc3ccc(C#CC4(O)CCCCCC4)cc31)[C@H]2c1ccc(OCCO)cc1	1.04
COc1cccc([C@H]2N[C@H](C(=O)O)CC[C@@H]2C)c1	-0.0831
[N-]=[N+]=NCc1ccccc1C[C@@]1(C(=O)O)N=C(c2ccc(OCCCO)cc2)O[C@@H]1c1ccccc1N=[N+]=[N-]	-1.6
CC(C)N1CC=CC23O[C@@H]4/C=C\CCCOC(=O)C4[C@H]2C(=O)N(CCCCCO)[C@@H]3C1=O (stereo partly specified)	0.561
COCCOC(=O)N1C(=O)[C@@]2(c3cc(C#CCCO)ccc31)[C@H](c1ccc(OCCO)cc1)N1[C@H](c3ccccc3)[C@H](c3ccccc3)OC(=O)[C@H]1[C@@H]2C(=O)NC[C@H](O)c1ccccc1	0.504
CCCC[C@@H]1C[C@H]1[C@@H](NC(=O)c1cccs1)c1ccc(Cl)cc1	0.902
C#CCNC(/C=C/c1ccccc1)CO (stereo unspecified)	-0.156
Cc1ccc(N2C(=O)c3ccccc3[C@](C)(C(=O)NCC(C)C)[C@@H]2c2ccc(CO)cc2)nc1	0.613
Cc1ccc(S[C@]2(C(=O)O)CC(=O)N(Cc3cc(C(F)(F)F)cc(C(F)(F)F)c3)[C@@H]2c2ccc(CO)cc2I)cc1	0.419
C=CC[C@]1(C(=O)NCC(O)CO)N=C(c2ccc(OCCCO)cc2)O[C@H]1c1ccccc1 (stereo partly specified)	-1.1
